assay: S16 Schwann cell viability assay (CellTiter-Glo assay) (AID 624031); conditions: S16 rat Schwann cells viability, 24 h; series mostly up to 57.5 µM;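 also: native untransfected S16 rat Schwann cells; cellular ATP luminescence as a viability measure; plate controls were DMSO-treated cells for no effect and cell-free wells for full effect; nearly all actives have a fitted effect of over 70% in size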
Inconclusive results are not listed. Active and inactive are the calls of the source. Calls follow the shape of the dose curve; as a rule, active = well fitted cell-killing curve with a large enough effect; inconclusive = small, poorly fitted or top-dose-only effect, or effect the other way; inactive = flat fitted curve, though single readings scatter.
The categories you may choose from are 1.0 (active), 0.0 (inactive)

Answered cases to consult:
- molecule: "CC(C)COC(=O)OCN1C(=O)CN(CCN2CC(=O)N(COC(=O)OCC(C)C)C(=O)C2)CC1=O"
  class-name: 0.0
- molecule: "CCN(CC)C(=O)N1CCN(C)CC1"
  class-name: 0.0
- molecule: "CCN1CCCC1=O"
  class-name: 0.0

Lookup: Could you please tell me the result logged for `CCN(CC)C(=O)/C(C#N)=C/c1cc(O)c(O)c([N+](=O)[O-])c1` in this assay?
Found: 0.0

Lookup: What call does the record list for `COc1cc(OC)cc(OC)c1` ?
Found: 0.0

Lookup: # fetch the recorded call for `O=C1OCCN1/N=C/c1ccc([N+](=O)[O-])o1` here
Found: 0.0

Lookup: Status in this test for `CN1CCC[C@@H]1c1cccnc1` ?
Found: 0.0

Lookup: What did this assay record as the result for CCN(CC)CCOC(=O)C(c1ccccc1)C1CCCCC1 (stereo not drawn) ?
Found: 0.0

----------
experiment: qHTS of pediatric cancer cell lines to identify multiple opportunities for drug repurposing: Primary screen for Rh30 cells (AID 1347107); conditions: Rh30 rhabdomyosarcoma viability, CellTiter-Glo luminescence, 48 h; series mostly up to 46 µM; also: % is scaled to controls: 0 for no effect and ±100 for the full control effect; nearly all actives have a fitted effect of over 75% in size
Results filed as inconclusive are left out. Active and inactive are the calls of the source. The call rests on the fitted dose curve; in most records, active means well fitted cell-killing curve with a large enough effect; inconclusive means small, poorly fitted or top-dose-only effect; inactive means no such curve, though single readings can be large or run the other way.
endpoint-label: outcome

Known results for molecules:
- molecule: "NCCc1ccn[nH]1"
  test-value: "inactive"
- molecule: "CCOc1ccc(NC(=O)CC(C)O)cc1 (stereo not given)"
  test-value: "inactive"
- molecule: "Cc1cccc(C)c1NC(=O)CN1CCN(CCCC(c2ccc(F)cc2)c2ccc(F)cc2)CC1"
  test-value: "inactive"
- molecule: "Cc1nc2n(c(=O)c1CCN1CCC(c3noc4cc(F)ccc34)CC1)CCC[C@H]2O"
  test-value: "inactive"
- molecule: "COc1cccc(CCc2ccccc2OCC(CN(C)C)OC(=O)CCC(=O)O)c1 (stereo not given)"
  test-value: "inactive"

Lookup: Fill in the blank: the reported outcome of CC(Cc1cccc(C(F)(F)F)c1)NCCOC(=O)c1ccccc1 (stereo not given) is ____.
Found: inactive

Lookup: Returns the measured outcome for the input molecule. Input: CCCCCCCCCCOCC(O)CN (stereo not given)
Found: inactive

Lookup: Value lookup for outcome; key = NC(CS)C(=O)O (stereo not given)
Found: inactive

Lookup: Name the reported outcome value associated with the molecule `OCc1ccccc1O`
Found: inactive

Lookup: Would you mind telling me what outcome value was observed for `C[C@@H]1CN(CCCn2c3ccccc3c3ccccc32)C[C@H](C)N1` ?
Found: inactive

Lookup: Which measured outcome value corresponds to `CC(=O)[C@H]1CC[C@H]2[C@@H]3C[C@H](C)C4=CC(=O)CC[C@]4(C)[C@H]3[C@@H](O)C[C@]12C` ?
Found: inactive

Lookup: Would you mind telling me what outcome value was observed for `C=C(CC)C(=O)c1ccc(OCC(=O)O)c(Cl)c1Cl` ?
Found: inactive

Lookup: Need outcome of C[C@H]1[C@H](NC(=O)/C(=N/OC(C)(C)C(=O)O)c2csc(N)n2)C(=O)N1S(=O)(=O)O (stereo in doubt) , thanks.
Found: inactive

Lookup: Endpoint output: outcome of `C[C@]12CCC(=O)C=C1[C@@H]1C[C@@H]1[C@H]1[C@@H]3[C@@H]4C[C@@H]4[C@@]4(CCC(=O)O4)[C@@]3(C)CC[C@@H]12` . Value?
Found: inactive

----------
Recorded activity, negative = cell killing, one value per entry.
Assay: Drug repurposing screens with cells derived from glioblastoma tumor samples (AID 1345199); also: % is scaled to controls: 0 for no effect and ±100 for the full control effect; nearly all actives have a fitted effect of over 40% in size
Settings: GBM patient neurospheres viability, ATP luminescence, 48 h; at 45.9 µM (top of the series); tumour line B
Experimental: CD133+ cells were isolated from GBM patient biopsies and cultured as neurospheres. Neurospheres from four patients were used to screen the NCATS pharmaceutical collection (NPC) library of approved drugs and bioactive compounds. […] The neurospheres were incubated with drugs for 48 hours in 1536-well format, then assayed with an ATP content cell viability assay. […]
Records with an inconclusive call do not appear.
I only need the number, in %, no unit after it.

- compound: "Cc1c(C(C)C)c(=O)n(-c2ccccc2)n1C"
  unit-label: "%"
  activity, negative = cell killing: -4.08
- compound: "c1ccc(-c2ccc(C(c3ccccc3)n3ccnc3)cc2)cc1 (configuration not stated)"
  unit-label: "%"
  activity, negative = cell killing: -29.4
- compound: "COc1cc(C(=S)N2CCOCC2)cc(OC)c1OC"
  unit-label: "%"
  activity, negative = cell killing: -7.77
- compound: "CN1CCC[C@@H]1c1cccnc1"
  unit-label: "%"
  activity, negative = cell killing: -7.48
- compound: "OC(CCN1CCCCC1)(c1ccccc1)c1ccccc1"
  unit-label: "%"
  activity, negative = cell killing: -13.7
- compound: "NC(CO)(CO)CO"
  unit-label: "%"
  activity, negative = cell killing: -1.58

Please turn your attention to the following entry.
Lookup: Field request: activity, negative = cell killing | item: `CCCN1CCCC[C@H]1C(=O)Nc1c(C)cccc1C`
Found: -11.5

----------
Reported max response is given for each of the following compounds.
Experiment: qHTS Assay for Identifying Gametocytocidal Compounds (AID 743244);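 also: % is scaled to controls: 0 for no effect and ±100 for the full control effect; actives lower the fluorescent signal which means gametocytes are killed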
Conditions: P. falciparum 3D7 stage III-V gametocytes, alamarBlue, 72 h; stronger effect = lower value
Text: Malaria cases and deaths have dropped 50% in 29 countries since 2000 due to the combined effects of long-lasting insecticidal bednets, indoor residual spraying, and artemisinin-based combination therapies (ACTs). […] Within live cells, the nonfluorescent resazurin is reduced to resorufin, a bright red fluorescence dye. Fluorescence decreases upon treatment of gametocytocidal compounds. […]
Records with an inconclusive call do not appear.
Numbers only; they are read as %.

Please review the entries below; each comes with its answer.
- compound: "COc1c(C)c2c(c(O)c1C/C=C(\\C)CCC(=O)O)C(=O)OC2"
  max response, %: 31.6
- compound: "CCN(CCCCOC(=O)c1ccc(OC)c(OC)c1)C(C)Cc1ccc(OC)cc1 (stereo unspecified)"
  max response, %: 14.8

Lookup: // lookup max response for `C[C@@H]1C[C@H]2[C@@H]3CCC4=CC(=O)C=C[C@]4(C)[C@@]3(F)[C@@H](O)C[C@]2(C)[C@H]1C(=O)CO`
Found: 9.79

Lookup: Quick check: max response of `CC(C)(Oc1ccc(Cl)cc1)C(=O)O` ?
Found: 6.9

Lookup: Can you share its max response? I mean this compound: `COc1cc(OC)cc(OC)c1`
Found: 0.294

Lookup: What value of max response has been reported for the following compound? CCC(C(=O)OCCN(CC)CC)c1ccccc1 (stereo unspecified)
Found: -1.81

Lookup: Would you kindly share the measured max response for `NCCc1ccn[nH]1` ?
Found: 5.14

Lookup: Fill in the blank: the reported max response of COc1ccc(OC)c(C(O)CNC(=O)CN)c1 (stereo unspecified) is ____.
Found: -3.82

Lookup: I would be grateful if you could share the reported max response for `CC(=O)[C@H]1CC[C@H]2[C@@H]3C[C@H](C)C4=CC(=O)CC[C@]4(C)[C@H]3[C@@H](O)C[C@]12C` .
Found: 9.78

Lookup: Give its max response value. Item: `Cc1cccc(C)c1NC(=O)CN1CCN(CCCC(c2ccc(F)cc2)c2ccc(F)cc2)CC1`
Found: 0.546

Lookup: What value of max response has been recorded for this entry: `CC(C)=CCC1C(=O)N(c2ccccc2)N(c2ccccc2)C1=O`
Found: -12.9

Lookup: What max response value was documented for this compound, COc1cc2c(cc1OC)C(=O)C(CC1CCN(Cc3ccccc3)CC1)C2 (stereo unspecified) ?
Found: 3.63

Lookup: Dear colleague, I am looking for the recorded max response of the following compound: `CCOc1ccc(Cc2nccc3cc(OCC)c(OCC)cc23)cc1OCC`
Found: 10.4

----------
target: Ubiquitin carboxyl-terminal hydrolase 1 (Homo sapiens); assay: Inhibitors of USP1/UAF1: Pilot qHTS (AID 504865); conditions: purified USP1/UAF1, Ub-rhodamine cleavage fluorescence; series mostly up to 114 µM;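 also: rhodamine fluorescence freed from ubiquitin-rhodamine substrate followed over time; top concentration of the series differs between compounds; % is scaled to controls: 0 for no effect and ±100 for the full control effect; nearly all actives have a fitted effect of over 35% in size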
Records with an inconclusive call do not appear. Activity calls are given as the source filed them. Calls follow the shape of the dose curve; as a rule, active = well fitted inhibition curve with a large enough effect; inconclusive = small, poorly fitted or top-dose-only effect; inactive = flat fitted curve, though single readings scatter.
endpoint-label: outcome

Below are worked cases with known answers.
- compound: "CC(C)(C(=O)c1cccnc1)c1cccnc1"
  outcome: "inactive"
- compound: "CCCC(=O)Nc1ccc(OCC(O)CNC(C)C)c(C(C)=O)c1 (stereo unspecified)"
  outcome: "inactive"
- compound: "O=C(N/N=C/c1ccccc1O)c1ccncc1"
  outcome: "inactive"
- compound: "CN(C)CCOc1ccccc1Cc1ccccc1"
  outcome: "inactive"
- compound: "CCCCc1nc(Cl)c(CO)n1Cc1ccc(-c2ccccc2-c2nn[nH]n2)cc1"
  outcome: "inactive"
- compound: "COc1ccc(CN2CCN(C(c3ccc(F)cc3)c3ccc(F)cc3)CC2)c(OC)c1OC"
  outcome: "inactive"
- compound: "CC(=O)OCC(=O)NCCCOc1cccc(CN2CCCCC2)c1"
  outcome: "inactive"
- compound: "NCCC(O)(P(=O)(O)O)P(=O)(O)O"
  outcome: "inactive"
- compound: "COCc1c(C(C)C)nc(C(C)C)c(/C=C/[C@@H](O)C[C@@H](O)CC(=O)O)c1-c1ccc(F)cc1"
  outcome: "inactive"
- compound: "CC[N+](CC)(CCNC(=O)C(=O)NCC[N+](CC)(CC)Cc1ccccc1Cl)Cc1ccccc1Cl"
  outcome: "inactive"

Here is another compound to look at.
Lookup: Report outcome for `COc1ccc(/C=C/C(=O)c2ccc(OC)cc2OC)cc1` tested on Ubiquitin carboxyl-terminal hydrolase 1 (Homo sapiens).
Found: inactive

Source listed as PubChem BioAssay (NCATS).
